Target: hH4R (Homo sapiens)
Sequence (Q9H3N8 whole entry): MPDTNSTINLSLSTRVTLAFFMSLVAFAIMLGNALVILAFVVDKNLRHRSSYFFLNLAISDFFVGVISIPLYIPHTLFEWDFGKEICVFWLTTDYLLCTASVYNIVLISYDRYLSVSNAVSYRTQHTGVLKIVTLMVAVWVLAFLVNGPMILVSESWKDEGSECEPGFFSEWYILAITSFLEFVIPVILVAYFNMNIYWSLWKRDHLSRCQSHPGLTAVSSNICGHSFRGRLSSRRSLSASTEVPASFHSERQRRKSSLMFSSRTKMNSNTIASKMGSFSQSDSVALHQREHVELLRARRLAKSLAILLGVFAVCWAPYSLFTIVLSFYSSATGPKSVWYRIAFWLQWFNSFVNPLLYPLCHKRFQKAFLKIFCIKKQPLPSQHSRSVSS
measurement.name: Ki

Data request: Would you kindly share the measured Ki for `c1ccc(-c2ccc(OCCCN3CCCCC3)cc2)cc1` ?
Data returned: > 10 µM

* * *

Documented pKi across a set of compounds
Biological target: σ2R (Rattus norvegicus, UniProt Q5U3Y7)
Sequence (Q5U3Y7 1-176): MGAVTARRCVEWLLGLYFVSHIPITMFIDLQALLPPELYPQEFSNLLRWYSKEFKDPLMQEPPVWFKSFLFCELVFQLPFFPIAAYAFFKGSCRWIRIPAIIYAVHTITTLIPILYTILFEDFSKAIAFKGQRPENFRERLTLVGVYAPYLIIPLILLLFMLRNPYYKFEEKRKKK
Experiment: σ2R radioligand binding ([3H]DTG, liver membranes)
Conditions: exptl Ki σ2, Table 3, given as mean ± spread
Reminder that pKi means the negative base-10 logarithm of the concentration expressed in mol/L.

INSERT INTO results (smiles_structure, observed_value) VALUES
  ('N#Cc1ccc(-c2ccc(OCCCN3CCN(c4ccncc4)CC3)cc2)cc1', 7.12),
  ('c1ccc(-c2ccc(OCCCN3CCCCC3)cc2)cc1', 7.17),
  ('O=C(c1ccc(Cl)cc1)c1ccc(OCCCN2CCN(c3ccncc3)CC2)cc1', 7.49),
  ('CCC(C)(C)c1ccc(OCCCCN2CCN(c3ccncc3)CC2)cc1', 7.00),
  ('CC(C)(C)c1ccc(OCCCCN2CCN(c3ccncc3)CC2)cc1', 6.76),
  ('c1ccc(-c2ccc(OCCCN3CCN(c4ccncc4)CC3)cc2)cc1', 6.97),
  ('CC(=O)c1ccc(OCCCCCCN2CCN(c3ccncc3)CC2)cc1', 6.82),
  ('O=C(c1ccccc1)c1ccc(OCCCN2CCCCC2)cc1', 7.02);

Now, please, on to the next compound.
Data request: Would you kindly share the measured pKi for `O=C(c1ccccc1)c1ccc(OCCCN2CCN(c3ccncc3)CC2)cc1` ?
Data returned: 7.53
